Every entry's value here was drawn from patent US9309285B2.

target_under_test: E. coli SPase (Escherichia coli)
Construct: Full length His-tagged E. coli and S. aureus SPase proteins were expressed in E. coli BL21; His tag; made in house; host or cells: E. coli BL21 (DE3)
Sequence (P00803 whole entry): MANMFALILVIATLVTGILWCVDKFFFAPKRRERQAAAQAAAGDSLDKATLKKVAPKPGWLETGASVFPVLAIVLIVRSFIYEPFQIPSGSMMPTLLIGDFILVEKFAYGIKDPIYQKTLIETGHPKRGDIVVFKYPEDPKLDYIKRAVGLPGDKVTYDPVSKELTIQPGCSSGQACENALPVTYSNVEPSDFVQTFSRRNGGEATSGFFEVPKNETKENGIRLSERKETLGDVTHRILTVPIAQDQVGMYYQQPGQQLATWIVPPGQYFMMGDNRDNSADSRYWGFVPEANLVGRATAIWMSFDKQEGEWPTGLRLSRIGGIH
assay_text: SPase enzyme inhibition assay, fluorogenic peptide substrate, E. coli
Format: biochemical
study_conditions: 3 nM E. coli SPase, 20 μM substrate, 10 minutes pre-incubation, room temperature; read-out: IC 50 (nM) E. coli
The compounds listed here are annotated with their IC50.

{"columns": ["compound", "IC50 (nM)"],
 "data": [
  ["CCCCc1ccc(-c2ccc(C(=O)NC(CCCCN)C(=O)N[C@H]3COCCCCOC[C@@H](C(=O)N[C@@H](C)B4O[C@@H]5C[C@@H]6C[C@@H](C6(C)C)[C@]5(C)O4)NC(=O)[C@H](C)NC3=O)cc2)cc1 (mixture of isomers)", 81],
  ["CCCCc1ccc(-c2ccc(CC(=O)NCCC(=O)N[C@@H](CCCCN)C(=O)N(C)[C@@H]3C(=O)N[C@@H](C)C(=O)N[C@H](C(=O)O)Cc4ccc(O)c(c4)-c4cc3ccc4O)cc2)cc1", 5.4],
  ["CCCCCCCC(=O)NCCC(=O)N[C@@H](CCCCN)C(=O)N(C)[C@@H]1C(=O)N[C@@H](C)C(=O)N[C@H](C(=O)N[C@@H](C)C(N)=O)Cc2ccc(O)c(c2)-c2cc1ccc2O", 370],
  ["CCCCc1ccc(-c2ccc(C(=O)NCC(C)C(=O)N[C@@H](CCCN)C(=O)N(C)[C@@H]3C(=O)N[C@@H](C)C(=O)N[C@H](C(=O)O)Cc4ccc(O)c(c4)-c4cc3ccc4O)cc2)cc1 (stereo partly shown)", 3.6]
]}

---

The molecules listed here are annotated with their IC50.
target_under_test: E. coli SPase (Escherichia coli)
Construct: Full length His-tagged E. coli and S. aureus SPase proteins were expressed in E. coli BL21; His tag; made in house; host or cells: E. coli BL21 (DE3)
assay_text: SPase enzyme inhibition assay, fluorogenic peptide substrate, E. coli
Assay type: biochemical
study_conditions: 3 nM E. coli SPase, 20 μM substrate, 10 minutes pre-incubation, room temperature; read-out: IC 50 (nM) E. coli

{"columns": ["item_smiles", "target_under_test", "IC50 (nM)"],
 "data": [
  ["CCCCc1ccc(-c2ccc(C(=O)N[C@@H](CCCCN)C(=O)N(C)[C@@H]3C(=O)N[C@@H](C)C(=O)N[C@H](C(=O)N[C@@H](C)B4O[C@@H]5C[C@@H]6C[C@@H](C6(C)C)[C@]5(C)O4)CCCCCc4cc3ccc4OC)cc2)cc1", "E. coli SPase (Escherichia coli)", 680],
  ["CCCCc1ccc(-c2ccc(C(=O)NC[C@@H](C)C(=O)N[C@@H](CCCCN)C(=O)N(C)[C@@H]3C(=O)N[C@@H](C)C(=O)N[C@H](C(=O)O)Cc4ccc(O)c(c4)-c4cc3ccc4O)cc2)cc1", "E. coli SPase (Escherichia coli)", 1.3],
  ["CNC(=O)[C@@H]1CCCN1C(=O)[C@H](C)NC(=O)[C@@H]1Cc2ccc(O)c(c2)-c2cc(ccc2O)[C@H](N(C)C(=O)[C@H](CCCCN)NC(=O)c2ccc(-c3ccc(Cl)cc3)cc2)C(=O)N[C@@H](C)C(=O)N1", "E. coli SPase (Escherichia coli)", 44],
  ["CCCCc1ccc(-c2ccc(C(=O)NCC(=O)N[C@@H](CCCCN)C(=O)N(C)[C@@H]3C(=O)N[C@@H](C)C(=O)N[C@H](C(=O)O)Cc4ccc(O)c(c4)-c4cc3ccc4O)cc2)cc1", "E. coli SPase (Escherichia coli)", 2.4],
  ["CCCCc1ccc(-c2ccc(C(=O)N[C@@H](CCCCN)C(=O)N[C@H]3COCCCCC[C@@H](C(=O)N[C@@H](C)B(O)O)NC(=O)[C@H](C)NC3=O)cc2)cc1", "E. coli SPase (Escherichia coli)", 30]
]}
